- Assayed Target: Pancreatic Elastase (porcine) (Sus scrofa)
- Construct: purchased Elastin Products Company, Inc
- Sequence (P00772 27-266): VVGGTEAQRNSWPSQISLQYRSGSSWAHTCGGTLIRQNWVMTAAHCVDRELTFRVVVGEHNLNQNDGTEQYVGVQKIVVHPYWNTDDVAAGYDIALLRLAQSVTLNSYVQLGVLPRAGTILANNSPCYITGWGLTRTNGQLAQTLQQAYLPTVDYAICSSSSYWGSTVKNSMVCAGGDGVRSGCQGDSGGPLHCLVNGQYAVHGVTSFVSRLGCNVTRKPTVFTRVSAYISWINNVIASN
- Experiment Summary: Enzyme inhibition assay, pancreatic elastase, release of p-nitroaniline from Ac-Ala-Ala-Pro-Ala-pNA
- Assay type: biochemical
- Test Conditions: 500 ng enzyme/assay
Assay Metric: amount of inhibitor giving 50% inhibition, Pancreatic Elastase (porcine) (ng)

Substance	Assay Value
Met^-1 -Leu^18 -Glu^19 -Arg^21 -Ala^32 -PSTI (DSLGREAKCYNELNGCTLEYRPVCGTDGNTYANECVLCFENRKRQTSILIQKSGPC; N-terminal Met; UniProt P00995 24-79, looked up, variant K18L I19E D21R P32A) [Met-PSTI-4A]	73
Asn^-13 -Ala^-12 -Glu^-11 -Thr^-10 -Ala^-9 -His^-8 -Lys^-7 -Ser^-6 -Asn^-5 -Glu^-4 -Val^-3 -Thr^-2 -Met^-1 -Leu^18 -Glu^19 -Arg^21 -Ala^32 -PSTI ({Asn-Ala-Glu-Thr-Ala-H2N}-KSNEVTMDSLGREAKCYNELNGCTLEYRPVCGTDGNTYANECVLCFENRKRQTSILIQKSGPC; ends and bridges not checked; UniProt P00995 24-79, looked up, variant K18L I19E D21R P32A) [PSTI-4A [Minifusion]]	68
